The compounds listed here are annotated with their Ratio Ki.
# Organism: Homo sapiens
# TEST SUMMARY: Selectivity ratio of Ki for human prostanoid DP receptor to Ki for human prostanoid EP4

Illustrative cases are given below, each with its answer.
* C[C@H](NC(=O)c1cccc2c1N(Cc1ccc(OC(F)(F)F)cc1)CC2)c1ccc(C(=O)O)cc1 | 880
* C[C@H](NC(=O)c1cccc2c1N(Cc1cccnc1)CC2)c1ccc(C(=O)O)cc1 | > 50
* C[C@H](NC(=O)c1cccc2c1N(Cc1ccc(Cl)cc1)CC2)c1ccc(C(=O)O)cc1 | > 1000

Q: Quick one: Ratio Ki for C[C@H](NC(=O)c1cccc2c1N(Cc1cccc(C#N)c1)CC2)c1ccc(C(=O)O)cc1 ?
A: > 1000

Q: Then C[C@H](NC(=O)c1cccc2c1N(Cc1ccc(C(F)(F)F)cc1)CC2)c1ccc(C(=O)O)cc1 ?
A: > 1000

Q: Then C[C@H](NC(=O)c1cccc2c1N(Cc1ccc(C(C)(C)C)cc1)CC2)c1ccc(C(=O)O)cc1 ?
A: > 281

Q: Then C[C@H](NC(=O)c1cccc2c1N(Cc1cccc(C(N)=O)c1)CC2)c1ccc(C(=O)O)cc1 ?
A: 461

Q: Then C[C@H](NC(=O)c1cccc2c1N(Cc1ccc(F)cc1)CC2)c1ccc(C(=O)O)cc1 ?
A: 907

Q: Then C[C@H](NC(=O)c1cccc2c1N(Cc1cccc(C(F)(F)F)c1)CC2)c1ccc(C(=O)O)cc1 ?
A: > 1000
